Cited source: PubChem BioAssay

Assay: splicing luciferase reporter signal modulators, primary screen, spliceosome inhibition project, cell-based, HEK293, splice +/- reporter (AID 1101);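 note: HEK293 cells carrying a splicing-competent luciferase reporter gene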
Conditions: luminescence, 24 h, higher = more signal, called active from +8 up or from −8 down
Measured z-score by item

- molecule: "C=C(CCCC)/C(=C/C[C@@H](OC(C)=O)c1cccc(OCCO)c1)c1cc(C(=O)OC)ccc1OC"
  z-score: -0.509
- molecule: "O=C1C2C=CC(C(O)C3CCCCC3)N(Nc3ccccc3F)C2C(=O)N1c1ccccc1 (configuration not stated)"
  z-score: -0.505
- molecule: "CC(C)C(=C=CC[C@H](O)c1cccc(OCCO)c1)C[C@H](O)c1ccccn1"
  z-score: -0.779
- molecule: "C[C@]12C(=O)N(CCO)[C@@H]3C(=O)N(c4ccc(Cl)cc4)CC=CC31O[C@@H]1/C=C\\CCCOC(=O)C12 (some centres not stated)"
  z-score: 0.178
- molecule: "COCCOC(=O)N1C(=O)[C@@]2(c3cc(C#CCNC(N)=O)ccc31)[C@H](C(=O)Nc1nc3ccccc3s1)[C@H]1C(=O)O[C@H](c3ccccc3)[C@H](c3ccccc3)N1[C@@H]2c1ccc(O)cc1"
  z-score: 1.05
- molecule: "COc1cccc(C)c1NC(=O)O[C@H]1[C@H](OC(=O)Nc2ccccc2)[C@@H](OC(=O)Nc2ccccc2)[C@@H](OC)O[C@@H]1CO"
  z-score: 0.449
- molecule: "COc1cc2c(cc1OC)CN(C(=O)[C@@H]1[C@H]3C(=O)O[C@H](c4ccccc4)[C@H](c4ccccc4)N3[C@H](c3ccc(O)cc3)[C@@]13C(=O)Nc1ccc(C#CC4=CCCCC4)cc13)CC2"
  z-score: -0.101

---

Measured composite z-score by item
Tested on: XIP peptide (Xip251-270) binding
Test: small-molecule binders of XIP peptide, primary screen, biochemical, small-molecule microarray, fluorescence 635/667 nm, 0.1 µg/mL protein (AID 1182)
Conditions: fluorescent protein binding, 635 nm, higher = more signal, called active from +8 up or from −8 down
readout_label: composite z-score

- compound: "CCCC1(C(=O)OC)C=C2C(=C(C(C)C)C(=O)C2C)CN1 (configuration not stated)"
  endpoint_value: -0.275
- compound: "COc1cc2c(cc1OC)CN(C(=O)[C@@H]1[C@H]3C(=O)O[C@H](c4ccccc4)[C@H](c4ccccc4)N3[C@H](c3ccc(O)cc3)[C@@]13C(=O)Nc1ccc(C#CC4=CCCCC4)cc13)CC2"
  endpoint_value: 0.715
- compound: "CC(C)(C)OC(=O)N1[C@@H](C=C(Br)Br)COC1(C)C"
  endpoint_value: 5.39
- compound: "CCOC(=O)C1=C[C@@H](C(C)(C)C)N(S(=O)(=O)c2ccc(C)cc2)[C@H]1c1ccc(OC)cc1"
  endpoint_value: 0.58
- compound: "CC(C)C[C@H]1NC(=O)CNC(=O)[C@@]23C(=O)N[C@@H](Cc4ccccc4)C2[C@H](C)[C@@]2(C)O[C@H]2C3/C=C/C/C=C\\CNC1=O (some centres not stated)"
  endpoint_value: 0.282
- compound: "COC(=O)C(CC#Cc1ccc2c(c1)[C@]1(C(=O)N2)[C@H](c2ccccc2OCCO)N2[C@H](c3ccccc3)[C@H](c3ccccc3)OC(=O)[C@H]2[C@@H]1C(=O)N1CCN(c2ncccn2)CC1)C(=O)OC"
  endpoint_value: -0.0996
- compound: "CN(C)CCCC[C@@H]1NC(=O)[C@H]2C[C@@H](C(=O)NCCCCCCNC(=O)CS)[C@@H](c3cccc(OCCO)c3)N2C1=O"
  endpoint_value: 0.305

---

Assay: small-molecule microarray binders of probe aXIP, primary screen, biochemical, NeuroSMM set, 635/667 nm fluorescence (AID 1119);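 note: probe is the protein aXip251-270 applied at 1 µg/mL to compound-printed slides; binding of probe to printed compounds measured as 667 nm fluorescence plus signal to noise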
Conditions: higher = more signal, called active from +8 up or from −8 down
Label Criterion met for high-side composite Z-score (at or above 0.5) and Criterion not met for low-side composite Z-score (below it).

- compound: "CCCCCN1CC=CC23O[C@@H]4/C=C\\CCCOC(=O)C4[C@H]2C(=O)N(CCCCCO)[C@@H]3C1=O (some centres undefined)"
  label_class: "Criterion not met"
- compound: "N#Cc1ccc(NN2C(C(O)c3ccc(B(O)O)cc3)C=CC3CN(c4ccccc4)C(=O)C32)cc1 (centres undefined)"
  label_class: "Criterion not met"
- compound: "CC1CC/C=C\\[C@H]2OC34C=CCN(C(C)C)C(=O)[C@H]3N(C(C)CO)C(=O)[C@@H]4C2C(=O)O1 (some centres undefined)"
  label_class: "Criterion not met"
- compound: "C=CC[C@@]1(C(=O)NCCCOC)N=C(c2ccc(OCCCO)cc2)O[C@@H]1c1ccccc1CN=[N+]=[N-]"
  label_class: "Criterion not met"
- compound: "O=C1O[C@@H](c2ccccc2)[C@@H](c2ccccc2)N2[C@@H](c3ccc(OCCO)cc3)[C@]3(C(=O)Nc4ccc(C#CC5=CCCCC5)cc43)[C@@H](C(=O)Nc3nc4ccccc4s3)[C@H]12"
  label_class: "Criterion not met"
- compound: "COCCCNC(=O)[C@@]1(CCC(=O)OC(C)(C)C)N=C(c2ccc(OCCCO)cc2)O[C@H]1c1ccccc1"
  label_class: "Criterion not met"
- compound: "COc1cccc(C)c1NC(=O)O[C@H]1[C@H](OC(=O)Nc2ccccc2)[C@@H](OC(=O)Nc2ccccc2)[C@@H](OC)O[C@@H]1CO"
  label_class: "Criterion not met"
- compound: "CC(C)(C)OC(=O)CC[C@@]1(C(=O)N2CCOCC2)N=C(c2ccc(OCCCO)cc2)O[C@@H]1c1ccccc1CN=[N+]=[N-]"
  label_class: "Criterion met"
- compound: "COC(=O)[C@@]1(Cc2ccc(F)cc2)[C@H]2c3cc(C(=O)N4CCCC4)n(C[C@H](O)CO)c3C[C@H]2CN1C(=O)c1ccccc1"
  label_class: "Criterion not met"
- compound: "COc1ccc([Si](C)(C)[C@@H]2[C@@H](CC(=O)N3CCC[C@H]3CO)O[C@]3(C(=O)N(Cc4cccc(N5C(=O)c6cccc7cccc5c67)c4)c4ccccc43)[C@H]2C)cc1"
  label_class: "Criterion met"
- compound: "CCCC=C(CCC)[C@@H](NC(=O)c1ccc(C(=O)OC)cc1)c1ccc(C(=O)OC)cc1"
  label_class: "Criterion not met"
- compound: "CCOC(=O)C[C@H]1[C@H](OC(=O)c2cc3ccccc3oc2=O)[C@@H](NC(=O)Cc2ccc(OC)cc2)c2cc(OCCCO)ccc2N1C(=O)Cc1ccc(OC)cc1"
  label_class: "Criterion met"
- compound: "COC(=O)[C@@]1(Cc2ccc(F)cc2)[C@H]2c3cc(C(=O)N4CCCC4)n(CCc4c[nH]c5cc(F)ccc45)c3C[C@H]2CN1C(=O)c1ccccc1"
  label_class: "Criterion met"

---

Assay: basal RPMI8226 mitochondrial membrane potential changes, profiling panel, cell-based, JC-1 fluorescence, 24 h, 100 nL compound (AID 1169)
Details: RPMI8226 myeloma, JC-1 mitochondrial potential fluorescence, higher = more signal
Label met for high-side z-score (at or above -0.6) and not met for low-side z-score (below it).

- compound: "CCN1C(=O)C2CC(=O)C3C(CN(S(=O)(=O)c4ccc(C)cc4)C3c3ccc(C)cc3)C2C1=O (centres undefined)"
  label_class: "met"
- compound: "CC(C)(C)OC(=O)CC[C@@]1(C(N)=O)N=C(c2ccc(OCCCO)cc2)O[C@@H]1c1ccccc1CN=[N+]=[N-]"
  label_class: "met"
- compound: "O=C(CS)NCCCCCCNC(=O)[C@H]1C[C@H]2C(=O)NCC(=O)N2[C@H]1c1cccc(OCCO)c1"
  label_class: "met"
- compound: "C=CCOC(=O)[C@H]1[C@@H]2C(=O)O[C@@H](c3ccccc3)[C@@H](c3ccccc3)N2[C@@H](c2ccc(OCCOC(=O)[C@H]3C[C@H]4C(=O)NCC(=O)N4[C@H]3c3cccc(OCCO)c3)cc2)[C@]12C(=O)Nc1ccc(I)cc12"
  label_class: "met"
- compound: "C=CC[C@]1(C(N)=O)N=C(c2ccc(OCCCO)cc2)O[C@H]1c1ccccc1N=[N+]=[N-]"
  label_class: "met"
- compound: "C=CCN1C(=O)[C@]2(O[C@H](CCO)[C@@H]([Si](C)(C)c3ccc(OC)cc3)[C@@H]2C)c2cc(N3C(=O)c4ccccc4Oc4ccccc43)ccc21"
  label_class: "not met"
- compound: "CC[C@@H](O[Si](C#C[Si](C(C)C)(C(C)C)C(C)C)(C(C)C)C(C)C)c1cn([C@H](C)c2ccccc2)nn1"
  label_class: "met"
- compound: "COCCOC(=O)N1C(=O)[C@@]2(c3ccccc31)[C@H](C(=O)Nc1nc3ccccc3s1)[C@H]1C(=O)O[C@H](c3ccccc3)[C@H](c3ccccc3)N1[C@@H]2c1ccccc1OCCO"
  label_class: "not met"
- compound: "CC(C)c1ccc(NN2C(C(O)C3CCCCC3)C=CC3C(=O)N(c4ccccc4)C(=O)C32)cc1 (centres undefined)"
  label_class: "met"
- compound: "COC(=O)[C@@]1(Cc2ccc(F)cc2)[C@H]2c3cc(C(=O)N4CCCC4)n(CCSCCO)c3C[C@H]2CN1C(=O)c1ccccc1"
  label_class: "met"
- compound: "C=C(C(=O)CC[C@@H](OC(=O)c1cccnc1)c1cccc(OCCO)c1)C(C)C"
  label_class: "not met"
- compound: "COCCCNC(=O)[C@]1(Cc2ccccc2CN=[N+]=[N-])N=C(c2ccc(OCCCO)cc2)O[C@@H]1c1ccccc1N=[N+]=[N-]"
  label_class: "not met"
- compound: "Cc1ccc(S[C@]2(C(=O)NCCN3CCOCC3)CC(=O)N(C(C)C)[C@@H]2c2ccc(CO)cc2I)cc1"
  label_class: "not met"
- compound: "COCCOC(=O)N1C(=O)[C@@]2(c3cc(C#CC4(O)CCCCCC4)ccc31)[C@H](C(N)=O)[C@H]1C(=O)O[C@H](c3ccccc3)[C@H](c3ccccc3)N1[C@@H]2c1ccc(OCCO)cc1"
  label_class: "not met"
